B1: library; numbered along this chain (parent)
chain: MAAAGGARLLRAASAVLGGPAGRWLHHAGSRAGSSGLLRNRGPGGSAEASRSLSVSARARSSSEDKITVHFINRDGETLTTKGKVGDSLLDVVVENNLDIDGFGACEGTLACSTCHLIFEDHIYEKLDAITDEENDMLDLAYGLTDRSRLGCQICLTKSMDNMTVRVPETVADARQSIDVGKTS

# Variants of: B1
# experiment.summary: scaled log2 fold change in cell abundance, elesclomol vs control (0 = silent mean, 1 = nonsense mean) (scaled log2 ratio); higher = higher viability under elesclomol (loss of FDX1 cuproptosis function);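 note: variant abundance is its share of total variant reads in each endpoint sample, from next-generation sequencing of the integrated ORF PCR-amplified out of genomic DNA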
# settings: with ABC1 FDX1 KO; elesclomol 5 nM; glucose 10 mM; 14 days
observation.type: scaled log2 fold change
// no unit, no text: just the number

R175C
-0.0756

The variant identified as G18Y registered its scaled log2 fold change at 0.0736

The variant identified as P168W registered its scaled log2 fold change at 0.463

The variant identified as K126M registered its scaled log2 fold change at 0.305
